# System: SNB-19 CNS
# Test Summary: NCI-60 one-dose screen, 48 h (100 = growth as untreated, 0 = no growth, -100 = all killed)
# Condition Description: 10 µM unless noted
Compounds without any hit were thinned out: in the full panel of roughly 83,000, 20% have a hit.
Measure: growth (%)
Answers are plain numbers, in %.

Worked examples follow.
COC(=O)CCCCCn1c2ccccc2c2c3c(c4c5ccccc5[nH]c4c21)C(=O)N(O)C3=O    29.9
CCN1CCN(c2nc(C)cc(N(CCCNc3ccnc4cc(Cl)ccc34)Cc3ccco3)n2)CC1    73.1
O=C1c2ccccc2C(=Cc2ccccc2)c2ccccc21    24.8
Cn1cc(-c2csc(-c3cn(CCN)c4ccccc34)n2)c2cccnc21    65.3

Provide growth values for the following items, in order.
1. Cc1ccc(-c2ccc(/C=C(\C#N)c3nc(-c4ccco4)cs3)o2)cc1
2. COc1ccc2c(c1)c(-c1nc(-c3c[nH]c4ncccc34)cs1)cn2CCN
3. NC(=O)NCC1CCCCC1
4. O=S(=O)(NCCNc1cc(-c2cn(-c3ccccc3)nc2-c2cccc(O)c2)ccn1)c1ccc(F)cc1
5. c1cnc2[nH]cc(-c3csc(-c4cn(CCCN5CCCCC5)c5ccccc45)n3)c2c1
6. Clc1ccc(Cn2cc(-c3nc4ccc(Br)nc4n3Cc3ccc(Cl)cc3)c3cccnc32)cc1

Given back:
[99.6, 79.4, 115, 46.5, 39.2, 89.2]
